target: Monocarboxylate transporter 1 (Rattus norvegicus); test: Inhibition of MCT1 in rat RBE4 cells assessed as reduction in [14C]lactate uptake measured after 15 mins by liquid scintillation counting analysis
Sequence (P53987 whole entry): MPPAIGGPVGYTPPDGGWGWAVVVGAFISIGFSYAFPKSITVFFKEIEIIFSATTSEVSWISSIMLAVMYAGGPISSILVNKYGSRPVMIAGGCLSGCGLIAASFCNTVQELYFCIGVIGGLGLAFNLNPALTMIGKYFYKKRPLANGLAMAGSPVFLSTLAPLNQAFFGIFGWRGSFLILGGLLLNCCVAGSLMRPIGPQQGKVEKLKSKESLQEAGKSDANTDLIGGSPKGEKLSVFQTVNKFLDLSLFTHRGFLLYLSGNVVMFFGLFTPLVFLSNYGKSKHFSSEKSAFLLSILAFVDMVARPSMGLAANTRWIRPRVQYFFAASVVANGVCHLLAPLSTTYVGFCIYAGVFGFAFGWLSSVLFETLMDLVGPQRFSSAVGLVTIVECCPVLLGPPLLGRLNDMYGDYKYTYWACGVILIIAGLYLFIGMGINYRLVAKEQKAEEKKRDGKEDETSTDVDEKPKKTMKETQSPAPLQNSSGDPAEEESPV
observation-type: IC50 (nM)

> print(dat)
                                   molecule  observation.type  measurement
1           CC(C)c1ccc(/C=C(\C#N)C(=O)O)cc1              IC50           66
2  N#C/C(=C\c1ccc(O)cc1)C(=O)O [alpha-CYANO-4-HYDROXYCINNAMIC ACID]              IC50          281

###

molecular target: Large neutral amino acids transporter small subunit 1 (Homo sapiens); test: Inhibition of LAT1 in human MCF7 cells assessed as inhibition of leucine uptake; type: cell-based
Sequence (Q01650 whole entry): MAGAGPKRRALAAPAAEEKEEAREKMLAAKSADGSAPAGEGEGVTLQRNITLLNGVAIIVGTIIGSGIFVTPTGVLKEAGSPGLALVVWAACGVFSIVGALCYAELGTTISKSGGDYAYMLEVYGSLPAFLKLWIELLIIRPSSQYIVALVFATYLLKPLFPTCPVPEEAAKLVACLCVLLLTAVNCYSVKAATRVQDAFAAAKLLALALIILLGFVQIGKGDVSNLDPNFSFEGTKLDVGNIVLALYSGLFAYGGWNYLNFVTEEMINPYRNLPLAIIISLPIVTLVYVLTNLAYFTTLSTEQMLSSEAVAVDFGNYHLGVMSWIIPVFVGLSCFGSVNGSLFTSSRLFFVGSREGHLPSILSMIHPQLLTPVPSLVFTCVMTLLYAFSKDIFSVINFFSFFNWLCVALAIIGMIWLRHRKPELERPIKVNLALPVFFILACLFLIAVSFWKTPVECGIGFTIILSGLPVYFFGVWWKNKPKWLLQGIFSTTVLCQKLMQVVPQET
observation-type: IC50

> print(dat)
                                   compound  measurement
1  CNC(=O)COc1ccc(C2=C(C#N)C3N=C4C=CC=CC4N3C(NC(=O)c3cccc(C[C@H](N)C(=O)O)c3)=C2C#N)cc1 (stereo partly specified)      18.2 µM
